The reported numbers originate from PubChem BioAssay (Tox21).

assay: qHTS assay to identify small molecule antagonists of the androgen receptor (AR) signaling pathway using the MDA cell line - cell viability counter screen (AID 743041; further: nearly all actives have a fitted effect of over 45% in size); settings: MDA-kb2 viability, CellTiter-Fluor, 16 h, cells co-treated with R1881 androgen agonist; series mostly up to 70.3 µM
Results filed as inconclusive are left out. Active and inactive are the calls of the source. The call rests on the fitted dose curve; in most records, active means well fitted cell-killing curve with a large enough effect in the repeat runs; inconclusive means weak or mixed curves, or effect the other way; inactive means flat fitted curve, though single readings scatter.
Outcome codes: class 1 for active, class 0 for inactive

{"Molecule": "C/C=C/C1=C(C(=O)O)N2C(=O)[C@@H](NC(=O)[C@H](N)c3ccc(O)cc3)[C@H]2SC1", "Label value": "class 0"}
{"Molecule": "CCN(CC)CCNC(=O)c1ccc(NS(C)(=O)=O)cc1", "Label value": "class 0"}
{"Molecule": "CCCCCCCC[N+](C)(C)CCCCCCCC", "Label value": "class 1"}
{"Molecule": "O=C(O)[C@@H]1C[C@H](CP(=O)(O)O)CCN1", "Label value": "class 0"}
{"Molecule": "CN1C(C(=O)Nc2ccccn2)C(=O)c2sc(Cl)cc2S1(=O)=O (centres undefined)", "Label value": "class 0"}
{"Molecule": "CCOC(=O)COc1ccc2c(=O)cc(-c3ccccc3)oc2c1", "Label value": "class 0"}
{"Molecule": "NC(=O)CC[C@@H]1NC(=O)[C@H](Cc2ccccc2)NC(=O)[C@H](Cc2ccc(O)cc2)NC(=O)[C@@H](N)CSSC[C@@H](C(=O)N2CCC[C@H]2C(=O)N[C@@H](CCCN=C(N)N)C(=O)NCC(N)=O)NC(=O)[C@H](CC(N)=O)NC1=O", "Label value": "class 0"}
{"Molecule": "O=[N+]([O-])c1ccc(O)c2ncccc12", "Label value": "class 1"}
{"Molecule": "Cc1cc(C(=O)NCCc2ccc(S(=O)(=O)NC(=O)NN3CCCCCC3)cc2)no1", "Label value": "class 0"}

###

Tested on: estrogen-related receptor alpha (ERRalpha) with PGC-1alpha coactivator, human
Test: qHTS assay to identify small molecule antagonists of the estrogen related receptor signaling pathway with the pleiotropic PPARgamma coactivator (PGC) (AID 1224821); further: nearly all actives have a fitted effect of over 50% in size
Conditions: ERR/PGC reporter cell line, luciferase, antagonist mode; series mostly up to 46.1 µM
Protocol: National Center for Advancing Translational Sciences [NCATS] NIH Chemical Genomics Center [NCGC] U.S. Environmental Protection Agency [EPA] National Institutes of Environmental Health Sciences [NIEHS] National Toxicology Program [NTP] […] The PGC/ERR cells were dispensed at 2,000 cells/5 ul/well in 1536-well white plates using a Multidrop dispenser. […] After 30 min incubation at room temperature, the luminescence intensity in the plates was measured using a ViewLux plate reader.
Inconclusive results are not listed. Activity calls are given as the source filed them. The call rests on the fitted dose curve.
Outcome codes: 1 = active, -1 = inactive

{"Molecule": "N#Cc1cc([N+](=O)[O-])c2sc(C(N)=O)[n+]([O-])c2c1", "System tested": "estrogen-related receptor alpha (ERRalpha) with PGC-1alpha coactivator, human", "Label value": -1}
{"Molecule": "CN(C)C(=O)/N=N/C(=O)N(C)C", "System tested": "estrogen-related receptor alpha (ERRalpha) with PGC-1alpha coactivator, human", "Label value": -1}
{"Molecule": "O=C1NCc2c1c1c3ccccc3[nH]c1c1[nH]c3ccccc3c21", "System tested": "estrogen-related receptor alpha (ERRalpha) with PGC-1alpha coactivator, human", "Label value": -1}
{"Molecule": "C=CCc1cccc(/C=N/NC(=O)CN2CCN(Cc3ccccc3)CC2)c1O", "System tested": "estrogen-related receptor alpha (ERRalpha) with PGC-1alpha coactivator, human", "Label value": -1}
{"Molecule": "COc1ccc(/C=C/c2nc(NCCCN(C)C)c3ccccc3n2)cc1", "System tested": "estrogen-related receptor alpha (ERRalpha) with PGC-1alpha coactivator, human", "Label value": 1}
{"Molecule": "O=C1Cc2c([nH]c3ccc(Br)cc23)-c2ccccc2N1", "System tested": "estrogen-related receptor alpha (ERRalpha) with PGC-1alpha coactivator, human", "Label value": -1}
{"Molecule": "N[C@@H](Cc1cnc[nH]1)C(=O)O", "System tested": "estrogen-related receptor alpha (ERRalpha) with PGC-1alpha coactivator, human", "Label value": -1}
{"Molecule": "COc1ccc(NC(=O)c2ccc(-c3ccc(-c4noc(C)n4)cc3C)cc2)cc1N1CCN(C)CC1", "System tested": "estrogen-related receptor alpha (ERRalpha) with PGC-1alpha coactivator, human", "Label value": -1}
{"Molecule": "O=c1[nH]ccc2c(O)cccc12", "System tested": "estrogen-related receptor alpha (ERRalpha) with PGC-1alpha coactivator, human", "Label value": -1}
{"Molecule": "NC(=O)C(=O)O", "System tested": "estrogen-related receptor alpha (ERRalpha) with PGC-1alpha coactivator, human", "Label value": -1}
{"Molecule": "COc1cc(C(O)CO)ccc1OS(=O)(=O)O (centres undefined)", "System tested": "estrogen-related receptor alpha (ERRalpha) with PGC-1alpha coactivator, human", "Label value": -1}
{"Molecule": "CCCCCCC/C=C\\CCCCCCCCC(=O)O", "System tested": "estrogen-related receptor alpha (ERRalpha) with PGC-1alpha coactivator, human", "Label value": -1}
{"Molecule": "CC[N+](CC)(CC)CC(=O)Nc1c(C)cccc1C", "System tested": "estrogen-related receptor alpha (ERRalpha) with PGC-1alpha coactivator, human", "Label value": -1}
{"Molecule": "Nc1ncnc2c1ncn2C1CCCC1", "System tested": "estrogen-related receptor alpha (ERRalpha) with PGC-1alpha coactivator, human", "Label value": -1}
{"Molecule": "NCCCC(=O)O", "System tested": "estrogen-related receptor alpha (ERRalpha) with PGC-1alpha coactivator, human", "Label value": -1}
{"Molecule": "N#CC(C#N)=C(N)/C(C#N)=C/c1ccc(O)cc1", "System tested": "estrogen-related receptor alpha (ERRalpha) with PGC-1alpha coactivator, human", "Label value": -1}
{"Molecule": "CNCCc1cnc(CCC(c2ccccc2)c2ccccc2)[nH]1", "System tested": "estrogen-related receptor alpha (ERRalpha) with PGC-1alpha coactivator, human", "Label value": -1}
{"Molecule": "CC[C@H](C)C(=O)O[C@H]1CCC=C2C=C[C@H](C)[C@H](CC[C@@H]3C[C@@H](O)CC(=O)O3)[C@H]21", "System tested": "estrogen-related receptor alpha (ERRalpha) with PGC-1alpha coactivator, human", "Label value": -1}
{"Molecule": "O=C(O)CCC/C=C\\C[C@@H]1[C@@H](/C=C/[C@H](O)C2Cc3ccccc3C2)[C@@H](F)C[C@@H]1O", "System tested": "estrogen-related receptor alpha (ERRalpha) with PGC-1alpha coactivator, human", "Label value": -1}
{"Molecule": "C#C[C@]1(O)CC[C@H]2[C@@H]3CCC4=Cc5oncc5CC4(C)[C@H]3CCC21C (some centres undefined)", "System tested": "estrogen-related receptor alpha (ERRalpha) with PGC-1alpha coactivator, human", "Label value": 1}
{"Molecule": "CSc1nc(N)c2ncn([C@@H]3O[C@H](COP(=O)(O)OP(=O)(O)O)C(O)[C@H]3O)c2n1 (some centres undefined)", "System tested": "estrogen-related receptor alpha (ERRalpha) with PGC-1alpha coactivator, human", "Label value": -1}
{"Molecule": "O=C1NC(=O)C(c2ccccc2[N+](=O)[O-])=C1Nc1ccc(O)c(Cl)c1", "System tested": "estrogen-related receptor alpha (ERRalpha) with PGC-1alpha coactivator, human", "Label value": -1}
{"Molecule": "C[N+]1(CCCCC[N+]2(C)CCCC2)CCCC1", "System tested": "estrogen-related receptor alpha (ERRalpha) with PGC-1alpha coactivator, human", "Label value": -1}
{"Molecule": "Nc1nc2ccc(Cl)cc2c2nc(-c3ccco3)nn12", "System tested": "estrogen-related receptor alpha (ERRalpha) with PGC-1alpha coactivator, human", "Label value": -1}

###

assay: qHTS assay to identify small molecule antagonists of the vitamin D receptor (VDR) signaling pathway - cell viability counter screen (AID 743225); details: VDR-bla HEK293T viability, CellTiter-Glo luminescence, 16 h; series mostly up to 61 µM; further: nearly all actives have a fitted effect of over 50% in size; further: potency means the concentration at half of the fitted maximal effect
Records with an inconclusive call do not appear. The source made the active and inactive calls. The call rests on the fitted dose curve; in most records, active means well fitted cell-killing curve with a large enough effect in the repeat runs; inconclusive means weak or mixed curves, or effect the other way; inactive means no such curve, though single readings can be large or run the other way.

{"Line notation": "CN1CCN(CCCN2c3ccccc3Sc3ccc(C(F)(F)F)cc32)CC1", "Potency": "23.9 µM (active)"}
{"Line notation": "c1ccc2cc3c4ccccc4c4ccccc4c3cc2c1", "Potency": "inactive"}
{"Line notation": "CC(C)c1ccc2sc3ccccc3c(=O)c2c1", "Potency": "inactive"}
{"Line notation": "C[C@H]1O[C@@H](O[C@H]2CC[C@@]3(C)[C@H](CC[C@@H]4[C@@H]3C[C@@H](O)[C@]3(C)[C@@H](C5=CC(=O)OC5)CC[C@]43O)C2)C[C@H](O)[C@@H]1O[C@H]1C[C@H](O)[C@H](O[C@H]2C[C@H](O)[C@H](O[C@@H]3O[C@H](CO)[C@@H](O)[C@H](O)[C@H]3O)[C@@H](C)O2)[C@@H](C)O1", "Potency": "0.338 µM (active)"}
